assay-target: human JAK3 (a.a. 781-1124) (Homo sapiens, UniProt P52333)
Construct: JAK3 (a.a. 781-1124); His tag (N); made in house; host or cells: insect cells (baculovirus)
Sequence (P52333 781-1124): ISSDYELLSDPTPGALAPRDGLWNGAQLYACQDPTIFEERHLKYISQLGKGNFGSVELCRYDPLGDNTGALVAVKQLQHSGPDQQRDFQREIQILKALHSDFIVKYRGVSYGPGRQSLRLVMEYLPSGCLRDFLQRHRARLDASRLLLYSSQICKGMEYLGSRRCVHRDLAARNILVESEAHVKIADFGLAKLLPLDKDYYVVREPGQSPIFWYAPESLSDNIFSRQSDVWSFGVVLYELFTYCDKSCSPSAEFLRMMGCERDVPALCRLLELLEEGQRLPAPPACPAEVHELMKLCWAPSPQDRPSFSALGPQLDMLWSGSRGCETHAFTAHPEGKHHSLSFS
assay: In vitro JAK kinase assay (HTRF, phosphorylation of a biotinylated peptide), JAK3
Assay type: biochemical
settings: Table B1
pIC50: −log10 of the molar value. Counter-ions that a name gives are not always drawn.
value-type: pIC50

Worked cases, answers included:
>>> result_value("O=C(Nc1ccc2cc1CCc1cccc(c1)Nc1ncc(Cl)c(n1)N2)N[C@H]1CCN(C(=O)c2ccccn2)C1 [Example B233, bis(trifluoroacetate)]")
6.99
>>> result_value("O=C(NCCNC(=O)c1ccccn1)Nc1ccc2cc1CCc1cccc(c1)Nc1ncc(Cl)c(n1)N2 [Example B190, trifluoroacetate]")
7.21
>>> result_value("O=C(Nc1ccc2cc1CCc1cccc(c1)Nc1ncc(Cl)c(n1)N2)c1ccc2occc2c1 [Example B79, trifluoroacetate]")
8.55
>>> result_value("O=C(Nc1ccc2cc1CCc1cccc(c1)Nc1ncc(Cl)c(n1)N2)c1ccc(F)cc1 [Example B49, trifluoroacetate]")
8.44

I: O=C(Nc1ccc2cc1CCc1cccc(c1)Nc1ncc(Cl)c(n1)N2)c1ccco1 [Example B33, trifluoroacetate]
II: O=C(Nc1ccc2cc1CCc1cccc(c1)Nc1ncc(Cl)c(n1)N2)C1CCCC1 [Example B60, trifluoroacetate]
// task: argmin of pIC50 over [ I , II ] Answer by quoting the chosen item's label.
I
(I: 7.36, II: 7.70)

A: CC(C)(C)OC(=O)N1CC[C@@H](NCc2ccc3cc2CCc2cccc(c2)Nc2ncc(Cl)c(n2)N3)C1 [Example B219, bis(trifluoroacetate)]
B: Brc1cnc2nc1Nc1cccc(c1)CCc1cccc(c1)N2 [Example B3, trifluoroacetate]
C: CC(C)(C)OC(=O)N1CC[C@@H](NC(=O)Nc2ccc3cc2CCc2cccc(c2)Nc2ncc(Cl)c(n2)N3)C1 [Example B174]
Rank items: key pIC50, increasing. Sort and list the labels as requested.
C, B, A
(C: 6.91, B: 7.17, A: 7.54)

1: Cc1csc(NC(=O)Nc2ccc3cc2CCc2cccc(c2)Nc2ncc(Cl)c(n2)N3)c1 [Example B120, trifluoroacetate]
2: CC(=O)N1CCN(Cc2ccc3cc2CCc2cccc(c2)Nc2ncc(Cl)c(n2)N3)CC1 [Example B225, bis(trifluoroacetate)]
3: O=C(Nc1ccc2cc1CCc1cccc(c1)Nc1ncc(Cl)c(n1)N2)Nc1ccccc1C(F)(F)F [Example B111, trifluoroacetate]
4: O=[N+]([O-])c1ccc(CN2CCN(Cc3cc4cc(c3)Nc3nc(ncc3Cl)Nc3cccc(c3)CC4)CC2)cc1 [Example B194, tris(trifluoroacetate)]
Hello, I need these entries ordered by pIC50, highest reading first. Thanks! Sort and list the labels as requested.
3, 2, 1, 4
(3: 7.68, 2: 7.43, 1: 7.17, 4: 6.97)

I: Cc1noc(C)c1NC(=O)Nc1ccc2cc1CCc1cccc(c1)Nc1ncc(Cl)c(n1)N2 [Example B94, trifluoroacetate]
II: CC(C)NC(=O)Nc1ccc2cc1CCc1cccc(c1)Nc1ncc(Cl)c(n1)N2 [Example B116, trifluoroacetate]
Between I and II , which one shows the larger pIC50 value? Answer by quoting the chosen item's label.
II
(II: 7.59, I: 7.29)

A: O=C(Nc1ccc2cc1CCc1cccc(c1)Nc1ncc(Cl)c(n1)N2)N[C@H]1CCN(C(=O)c2cccnc2)C1 [Example B171, bis(trifluoroacetate)]
B: O=C(Nc1ccc2cc1CCc1cccc(c1)Nc1ncc(Cl)c(n1)N2)c1ccc(Cl)nc1 [Example B69, bis(trifluoroacetate)]
C: Cc1cc(C(=O)N2CC[C@H](NC(=O)Nc3ccc4cc3CCc3cncc(c3)Nc3ncc(Cl)c(n3)N4)C2)no1 [Example B265, bis(trifluoroacetate)]
Hello, I need these entries ordered by pIC50, highest reading first. Thanks! Sort and list the labels as requested.
B, A, C
(B: 8.44, A: 7.29, C: 7.07)

P: O=C(Nc1nc[nH]n1)Nc1ccc2cc1CCc1cccc(c1)Nc1ncc(Cl)c(n1)N2 [Example B244, trifluoroacetate]
Q: CC(C)(C)OC(=O)N1CCN(Cc2ccc3cc2CCc2cccc(c2)Nc2ncc(Cl)c(n2)N3)CC1 [Example B221, bis(trifluoroacetate)]
Between P and Q , which one shows the larger pIC50 value? Answer by quoting the chosen item's label.
P
(P: 8.59, Q: 7.23)
